- Test system: Escherichia coli
- TEST: Inhibition of […] MurF ligase using D-Ala-D-Ala as substrate assessed as residual activity at 250 uM after 15 mins by malachite green assay

{"columns": ["COMPOUND", "TARGET UNDER TEST", "UNIT OF MEASURE", "Activity"],
 "data": [
  ["CC(C)(C)OC(=O)N1CCc2c(sc(NC(=O)c3cc(OCCNC(=O)C(F)(F)F)ccc3Cl)c2C#N)C1", "Escherichia coli", "%", 102],
  ["N#Cc1c(NC(=O)c2cc(OCCNC(=O)C(F)(F)F)ccc2Cl)sc2c1CCN(Cc1cccc(O)c1)C2", "Escherichia coli", "%", 56],
  ["CC(=O)Oc1ccc(C2CCc3c(sc(NC(=O)c4cc(OCCNC(=O)C(F)(F)F)ccc4Cl)c3C#N)C2)cc1 (stereo not given)", "Escherichia coli", "%", 101],
  ["N#Cc1c(NC(=O)c2cccc(OCCCN)c2)sc2c1CCCC2", "Escherichia coli", "%", 75],
  ["N#Cc1ccc(CN2CCc3c(sc(NC(=O)c4cc(OCCNC(=O)C(F)(F)F)ccc4Cl)c3C#N)C2)cc1", "Escherichia coli", "%", 45],
  ["N#Cc1c(NC(=O)c2cc(OCCNC(=O)C(F)(F)F)ccc2Cl)sc2c1CCN(Cc1ccccc1)C2", "Escherichia coli", "%", 46],
  ["N#Cc1c(NC(=O)c2cc(OCCN)ccc2Cl)sc2c1CCNC2", "Escherichia coli", "%", 65],
  ["N#Cc1c(NC(=O)c2cc(OCCNC(=O)C(F)(F)F)ccc2Cl)sc2c1CCNC2.O=C(O)C(F)(F)F", "Escherichia coli", "%", 91],
  ["COc1ccc(CN2CCc3c(sc(NC(=O)c4cc(OCCNC(=O)C(F)(F)F)ccc4Cl)c3C#N)C2)cc1", "Escherichia coli", "%", 81],
  ["N#Cc1c(NC(=O)c2cc(OCC(N)=O)ccc2Cl)sc2c1CCCC2", "Escherichia coli", "%", 74]
]}
